target: HRgpA-6H (Porphyromonas gingivalis) (UniProt P28784); test: ELISA, Fab FASEBA supernatant on coated HRgpA-6H (0.0625 ug/ml)
# OD450nm per record follows
Just the number, please, no unit attached.

Query: Answer with the recorded OD450nm for the binder listed here: KB001 parental mouse Fab VH variant A103C (Fab, V domains shown) VH: EVQLKQSGPGLVAPSQSLSITCTVSGFSLSIYSVHWVRQPPGKGLEWLGMIWGGGSSDYNSALKSRLSISKDNSKSQVFLKMNSLQTDDTAMYYCARNGNFYCMDYWGQGTSVTVSS VL: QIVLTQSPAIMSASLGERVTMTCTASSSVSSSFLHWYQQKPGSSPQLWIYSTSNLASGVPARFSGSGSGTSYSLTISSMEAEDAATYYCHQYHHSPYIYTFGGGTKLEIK
Reply: 0.77

Query: Answer with the recorded OD450nm for the binder listed here: KB001 parental mouse Fab VH variant S65R (Fab, V domains shown) VH: EVQLKQSGPGLVAPSQSLSITCTVSGFSLSIYSVHWVRQPPGKGLEWLGMIWGGGSSDYNSALKRRLSISKDNSKSQVFLKMNSLQTDDTAMYYCARNGNFYAMDYWGQGTSVTVSS VL: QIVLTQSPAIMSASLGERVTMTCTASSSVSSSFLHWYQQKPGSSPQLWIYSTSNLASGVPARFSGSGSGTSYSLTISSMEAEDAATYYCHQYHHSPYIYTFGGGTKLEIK
Reply: 0.794

Query: Answer with the recorded OD450nm for the binder listed here: KB001 parental mouse Fab VH variant N100P (Fab, V domains shown) VH: EVQLKQSGPGLVAPSQSLSITCTVSGFSLSIYSVHWVRQPPGKGLEWLGMIWGGGSSDYNSALKSRLSISKDNSKSQVFLKMNSLQTDDTAMYYCARNGPFYAMDYWGQGTSVTVSS VL: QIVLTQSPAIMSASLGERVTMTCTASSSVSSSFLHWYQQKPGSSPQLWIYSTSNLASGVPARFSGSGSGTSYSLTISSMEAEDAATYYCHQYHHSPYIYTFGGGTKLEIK
Reply: 0.757

Query: Answer with the recorded OD450nm for the binder listed here: KB001 parental mouse Fab VH variant N100C (Fab, V domains shown) VH: EVQLKQSGPGLVAPSQSLSITCTVSGFSLSIYSVHWVRQPPGKGLEWLGMIWGGGSSDYNSALKSRLSISKDNSKSQVFLKMNSLQTDDTAMYYCARNGCFYAMDYWGQGTSVTVSS VL: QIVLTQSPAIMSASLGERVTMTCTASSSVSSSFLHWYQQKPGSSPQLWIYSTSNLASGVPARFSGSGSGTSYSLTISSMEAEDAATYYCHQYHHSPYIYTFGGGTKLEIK
Reply: 0.688

Query: Answer with the recorded OD450nm for the binder listed here: KB001 parental mouse Fab VH variant N100R (Fab, V domains shown) VH: EVQLKQSGPGLVAPSQSLSITCTVSGFSLSIYSVHWVRQPPGKGLEWLGMIWGGGSSDYNSALKSRLSISKDNSKSQVFLKMNSLQTDDTAMYYCARNGRFYAMDYWGQGTSVTVSS VL: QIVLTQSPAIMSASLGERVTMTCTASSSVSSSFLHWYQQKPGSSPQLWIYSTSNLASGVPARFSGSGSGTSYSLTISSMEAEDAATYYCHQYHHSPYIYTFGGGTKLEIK
Reply: 0.788
